Target: T1, canine NGF (canine, UniProt Q29074 110-229 (pig entry), limits assumed)
T1 construct: The protein was secreted from CHO cells and purified; also called cNGF; canine β-NGF
T1 chain: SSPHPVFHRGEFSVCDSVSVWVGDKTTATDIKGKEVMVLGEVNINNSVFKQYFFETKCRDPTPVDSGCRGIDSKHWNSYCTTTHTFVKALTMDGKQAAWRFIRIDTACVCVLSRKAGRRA
Assay: SPR (Biacore T200), 100 nM mAb on NGF chip, similarity to parent mAb
measure: Percent Similarity Score (KD on cN) (%)
Write the answer as a number in %, unit excluded.

GET /value?item= can9L12VH_D113A (antibody, V domains shown) VH: EVQLVESGGDLVKPGGSLRLSCVASGFTFSSHGMHWVRQSPGKGLQWVAVINSGGSSTYYTDAVKGRFTISRDNAKNTVYLQMNSLRAEDTAMYYCAKESVGGWEQLVGPHFAYWGQGTLVIVSS VL: QSVLTQPTSVSGSLGQRVTISCSGSTNNIGILGASWYQLFPGKAPKLLVYGNGNRPSGVPDRFSGADSGDSVTLTITGLQAEDEADYYCQSFDTTLGAHVFGGGTHLTVL &field=Percent Similarity Score (KD on cN) returns 100

GET /value?item= can9L12VL_G30A (antibody, V domains shown) VH: EVQLVESGGDLVKPGGSLRLSCVASGFTFSSHGMHWVRQSPGKGLQWVAVINSGGSSTYYTDAVKGRFTISRDNAKNTVYLQMNSLRAEDTAMYYCAKESVGGWEQLVGPHFDYWGQGTLVIVSS VL: QSVLTQPTSVSGSLGQRVTISCSGSTNNIAILGASWYQLFPGKAPKLLVYGNGNRPSGVPDRFSGADSGDSVTLTITGLQAEDEADYYCQSFDTTLGAHVFGGGTHLTVL &field=Percent Similarity Score (KD on cN) returns 53.9

GET /value?item= can48L2VL_M27A (antibody, V domains shown, CDR scanning mutant of ZTS-842 (48L2)) VH: EVQLVESGGDLVKPGGSLRLSCVASGFTFSTYGINWVRQAPGKGLQWVAYISSGGSSTYYADPVKGRFTISRDDAKNMLYLQMNSLRAEDTAIYYCAGSRYTYAYGGGYEFHFWGQGTLVTVSS VL: QAVLNQPASVSGALGQKVTISCSGSTADIDIFGVSWYQQLPGKAPKLLVDSDGDRPSGIPDRFSGSRSGNSGTLTITGLQAEDEADYHCQSGDSTLGALAIFGGGTHVTVL &field=Percent Similarity Score (KD on cN) returns 28
